Give inhibition for every item shown.
experiment_notes: NOD1 signaling inhibitors, primary screen, cell-based, luminescence, uHTS (AID 1578);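 further: HEK-293T reporter cells stimulated with the NOD1 agonist gamma-tri-DAP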
assay_conditions: NOD1-driven NF-kB luciferase reporter cells, at 4 µM, stronger effect = higher value
Out of some 290,000 compounds screened, about 3,000 (1%) were called active. Many of the other results were omitted from the sample, so actives are more common in it than they were.
Give bare numbers, in %.

# count of solved cases: 5
{"smiles_data": "CCOC(=O)N1CCN(C(=S)Nc2ccc3nc(N4CCN(CC)CC4)cc(C)c3c2)CC1", "inhibition / %": -21}
{"smiles_data": "C#CCSc1ncc(S(=O)(=O)c2ccccc2)c(=O)[nH]1", "inhibition / %": 7.6}
{"smiles_data": "Cc1c(C(=O)N2CCN(c3ccccc3)CC2)sc2ncnc(N3CCN(c4ccccn4)CC3)c12", "inhibition / %": 27.4}
{"smiles_data": "Cc1nc(N2CCN(c3ccccn3)CC2)c2c(C)c(C(=O)N3CCN(c4cccc(Cl)c4)CC3)sc2n1", "inhibition / %": 18}
{"smiles_data": "Cc1nc(N2CCN(c3ccccn3)CC2)c2c(C)c(C(=O)Nc3ccc(Cl)cc3)sc2n1", "inhibition / %": -14}

// each listed compound needs a value for inhibition
1. Cc1ccc(S(=O)(=O)N(C)c2ccc(OC(=O)c3ccc(=O)[nH]c3)cc2)cc1
2. O=[N+]([O-])c1cc([N+](=O)[O-])c(Oc2cccnc2Br)cc1NN1CCCCC1
3. Cc1nc(N2CCN(c3ccccn3)CC2)c2c(C)c(C(=O)Nc3ccc(F)cc3F)sc2n1
4. Cc1c(CCOC(=O)c2cc([N+](=O)[O-])cc([N+](=O)[O-])c2)sc[n+]1CC(=O)c1ccccc1
5. Cc1nc(N2CCN(c3ccccn3)CC2)c2c(C)c(C(=O)Nc3c(F)cc(F)cc3Br)sc2n1
6. O=C(NNC1=C(C(=O)C(F)(F)F)CCC1)c1cccc(O)c1
7. Cc1c(C(=O)N2CCN(c3ccccn3)CC2)sc2ncnc(N3CCOCC3)c12
8. COc1ccc(S(=O)(=O)n2c([N+](=O)[O-])cnc2C)cc1OC

-- reply
5.9
5.9
12.3
-27.6
-28.6
-26.1
-12.5
-2.3

---

experiment_notes: NOD1 signaling inhibitors, primary screen, cell-based, luminescence, uHTS (AID 1578);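 further: HEK-293T reporter cells stimulated with the NOD1 agonist gamma-tri-DAP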
assay_conditions: NOD1-driven NF-kB luciferase reporter cells, at 4 µM
The whole screen tested about 290,000 compounds, of which about 3,000 (1%) were called active. Rule as the data show it: active = inhibition mostly above about 36% (no sharp cut-off); inactive = mostly below about 34%. For the sample, actives were picked, then their nearest neighbours and some compounds at random.
Please answer using one outcome listed in True for active, False for inactive

Solved entries (count: 3):
{"compound": "Cc1cccc(N/C(=N/S(=O)(=O)c2ccccc2)c2ccccc2)n1", "class_label": "False"}
{"compound": "Cn1c(Sc2ccccc2Cl)c(C=O)c2ccccc21", "class_label": "False"}
{"compound": "CN(C)C=NC(=O)c1cc(C(=O)c2ccc(Cl)cc2Cl)c[nH]1", "class_label": "True"}

-- ask So what was the verdict on `COc1cc(NC(=S)NCCCN2CCOCC2)c(OC)cc1NC(=O)c1ccco1` in this test?
-- reply False

-- ask So what was the verdict on `CN(C)C=NC(=O)c1cc(C(=O)c2ccc(Cl)cc2)c[nH]1` in this test?
-- reply False

-- ask So what was the verdict on `Cn1c(Oc2ccc(Cl)cc2)c(C=O)c2ccccc21` in this test?
-- reply False

-- ask So what was the verdict on CCOC(=O)CNC(c1ccccc1)c1cc(Br)ccc1NC(=O)CCN1CCOCC1 (stereo not given) in this test?
-- reply True

-- ask So what was the verdict on CCOC(=O)CNC(c1ccccc1)c1cc(Br)ccc1NC(C)=O (stereo not given) in this test?
-- reply False

-- ask So what was the verdict on `COCCN=C1OC(=O)N2C(=O)C3=C4[C@@H](C[C@H]5C(=O)N(c6ccccc6)C(=O)[C@H]5[C@H]4[C@@]12Cc1ccccc1)[C@H]1C(=O)N(c2ccccc2)C(=O)[C@H]1[C@H]3C` in this test?
-- reply False

-- ask So what was the verdict on `CN(C)C=NC(=O)c1cc(C(=O)c2ccccc2Cl)c[nH]1` in this test?
-- reply False

---

Give inhibition for every item shown.
experiment_notes: NOD1 signaling inhibitors, primary screen, cell-based, luminescence, uHTS (AID 1578);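 further: HEK-293T reporter cells stimulated with the NOD1 agonist gamma-tri-DAP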
assay_conditions: NOD1-driven NF-kB luciferase reporter cells, at 4 µM, stronger effect = higher value
Out of some 290,000 compounds screened, about 3,000 (1%) were called active. The sample holds actives, similar compounds and a random draw of the others, so the mix is not that of the screen.
Numbers only, in %.

{"molecule": "O=C(NCCc1ccccc1)C1CCC(=O)N1CCc1ccccc1 (stereo unspecified)", "inhibition / %": 2}

// each listed molecule needs a value for inhibition
1. O=C(CCl)N(C/C=C/c1ccccc1)c1ccc2c(c1)OCCO2
2. Fc1ccccc1Cn1cnc(NC(=S)NCCc2ccccc2)n1
3. c1ccc(C2NCCn3cccc32)cc1 (stereo unspecified)
4. CCN(CC)CCNC(=O)CS(=O)Cc1nc(-c2ccc(C)cc2)oc1C (stereo unspecified)
5. Oc1ccccc1CNc1ccc2c(c1)OCCO2
6. C=CCOc1ccccc1CN(C(=O)CCl)c1ccc2c(c1)OCO2

-- reply
1. 54.1
2. 47.4
3. -14.6
4. 13.6
5. -47.1
6. 64.3

// each listed molecule needs a value for inhibition
1. CCOc1ccccc1NC(=O)Nc1ccc2c(c1)OCO2
2. C=CCOc1ccccc1CNc1ccc2c(c1)OCCO2
3. COc1ccc(C2NCCn3cccc32)cc1 (stereo unspecified)
4. Fc1ccc(C2NCCn3cccc32)cc1 (stereo unspecified)
5. Fc1ccccc1NC(=S)NCCc1ccccc1
6. O=C(/C=C/c1ccccc1)Nc1ccc2c(c1)OCCO2

-- reply
1. -52.1
2. 58.5
3. 112
4. 25.8
5. 11.7
6. -2.7

// each listed molecule needs a value for inhibition
1. COc1ccccc1NS(=O)(=O)c1cc(NC(=O)c2ccc3ccccc3n2)ccc1Cl
2. O=Cc1ccccc1OCc1ccc2c(c1)OCO2
3. Cc1cc(C)c(C)c(S(=O)(=O)N2CCCCC2C(=O)O)c1C (stereo unspecified)
4. COc1cccc(NC(=O)N2CCCC(C(=O)NCc3ccc(F)cc3)C2)c1 (stereo unspecified)
5. Cn1ncc(N=Cc2ccccc2)c1C(N)=O

-- reply
-24.5
16.8
0.3
-13.5
-13.3

---

Give inhibition for every item shown.
experiment_notes: NOD1 signaling inhibitors, primary screen, cell-based, luminescence, uHTS (AID 1578);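 further: HEK-293T reporter cells stimulated with the NOD1 agonist gamma-tri-DAP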
assay_conditions: NOD1-driven NF-kB luciferase reporter cells, at 4 µM, stronger effect = higher value
About 3,000 (1%) of roughly 290,000 compounds were called active. The full list was thinned out, with actives kept by preference.
One number for each entry, in %.

# count of solved cases: 3
{"compound": "O=C(NCc1ccncc1)C(=O)Nc1nc(C23CC4CC(CC(C4)C2)C3)cs1", "inhibition (%)": -11.3}
{"compound": "O=C(NCc1ccc(F)cc1)C(=O)Nc1nc(C23CC4CC(CC(C4)C2)C3)cs1", "inhibition (%)": 46.9}
{"compound": "COc1ccc(C(CC(=O)c2ccc(C)cc2)C(C#N)C#N)cc1OC (stereo unspecified)", "inhibition (%)": 80.7}

// each listed compound needs a value for inhibition
1. O=C(Cn1ncc(Cl)c(Cl)c1=O)N1CCOCC1
2. Cc1nc2cc(NS(=O)(=O)c3cccc4cccnc34)ccc2s1
3. COc1ccc(C(CC(=O)c2ccccc2)CC(=O)c2ccccc2)cc1OC

-- reply
1: 6.8; 2: -11.7; 3: -7.4

---

experiment_notes: NOD1 signaling inhibitors, primary screen, cell-based, luminescence, uHTS (AID 1578);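 further: HEK-293T reporter cells stimulated with the NOD1 agonist gamma-tri-DAP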
assay_conditions: NOD1-driven NF-kB luciferase reporter cells, at 4 µM
Hit rate of the full screen: of about 290,000 compounds, about 3,000 (1%) were called active. Cut-off read from the data, not from the text of the source: active = inhibition mostly above about 36% (no sharp cut-off); inactive = mostly below about 34%. For the sample, actives were picked, then their nearest neighbours and some compounds at random.
Please answer using one outcome listed in t (active), f (inactive)

{"compound": "CCCCNC(=O)Cn1c(-c2ccc(OC)cc2)noc1=O", "class_label": "f"}

-- ask So what was the verdict on `C[n+]1cccc2c(Br)ccc([O-])c21` in this test?
-- reply f

-- ask So what was the verdict on `Clc1ccc(-n2ncc3c(N4CCCC4)ncnc32)cc1` in this test?
-- reply f

-- ask So what was the verdict on `COc1cc2c(cc1OC)CN(C(=O)CSc1nc(C)cc(C)c1C#N)CC2` in this test?
-- reply t

-- ask So what was the verdict on `Fc1ccccc1/C=N/Nc1nc2ccccc2o1` in this test?
-- reply f

-- ask So what was the verdict on Cc1oc(-c2cccs2)nc1CS(=O)CC(=O)NCc1ccc2c(c1)OCO2 (configuration not stated) in this test?
-- reply f

-- ask So what was the verdict on `NCC(=O)c1cccc2ccc[n+]([O-])c12` in this test?
-- reply f

-- ask So what was the verdict on `Cc1cc(C)c(C#N)c(SCC(=O)N2CCCCC2)n1` in this test?
-- reply f
